All values here come from patent US6586216B2.

Target: Bacillus subtilis glutamine PRPP amidotransferase variant S283A (Bacillus subtilis, UniProt P00497, S294A)
Construct: Enzymes of the B. subtilis class are synthesized with an NH2 terminal propeptide; made in house; host or cells: E. coli strain TX158 (purF), plasmid pBsF/S283A
Experiment: Inhibition of enzyme activity (glutamate formation) by nucleotides, mutant S283A
Format: biochemical
Details: I0.5, fixed GMP 0.50 mM
Experimental: Plasmid pGZ1 was used for production of the wild type enzyme. […] Enzyme activity was assayed by measuring the initial rate of formation of the product glutamate. […] Reactions were quenched in a boiling water bath for 2 min, and glutamate was determined by the glutamate dehydrogenase method. […] Inhibition by nucleotides was determined by the standard assay to which varied concentrations of nucleotide were added. […]
measured property: IC50 (mM)
Just the number in mM, nothing appended.

(Q) Consider the compound Nc1ncnc2c1ncn2[C@@H]1O[C@H](COP(=O)(O)OP(=O)(O)O)[C@@H](O)[C@H]1O and give its measured IC50.
(A) 4.8

* * *

Target: Bacillus subtilis glutamine PRPP amidotransferase variant S283A (Bacillus subtilis, UniProt P00497, S294A)
Construct: Enzymes of the B. subtilis class are synthesized with an NH2 terminal propeptide; made in house; host or cells: E. coli strain TX158 (purF), plasmid pBsF/S283A
Assay: Inhibition of enzyme activity (glutamate formation) by nucleotides, mutant S283A
Type: biochemical
Conditions: I0.5, fixed ADP 2.5 mM
measured property: pIC50
# reply with the number alone; pIC50 is -log10 of concentration in mol/L

(Q) Consider the molecule Nc1nc2c(ncn2[C@@H]2O[C@H](COP(=O)(O)O)[C@@H](O)[C@H]2O)c(=O)[nH]1 and give its measured pIC50.
(A) 2.77

* * *

Biological target: Bacillus subtilis glutamine PRPP amidotransferase, wild type (Bacillus subtilis)
Construct: Enzymes of the B. subtilis class are synthesized with an NH2 terminal propeptide; made in house; host or cells: E. coli strain TX158 (purF), plasmid pGZ1
Assay: Inhibition of enzyme activity (glutamate formation) by nucleotides, wild type
Format: biochemical
Settings: fixed AMP 0.1 mM; read-out: I0.5
measured property: IC50 (mM)
I only need the number, in mM, no unit after it.

(Q) Quick check: IC50 of Nc1nc2c(ncn2[C@@H]2O[C@H](COP(=O)(O)O)[C@@H](O)[C@H]2O)c(=O)[nH]1 ?
(A) 9.9

* * *

Target: Bacillus subtilis glutamine PRPP amidotransferase, wild type (Bacillus subtilis)
Construct: Enzymes of the B. subtilis class are synthesized with an NH2 terminal propeptide; made in house; host or cells: E. coli strain TX158 (purF), plasmid pGZ1
Test: Nucleotide binding by equilibrium dialysis, wild type enzyme
Conditions: Kd, fixed ADP 0.5 mM
measured property: Kd (µM)
Supply the numeric figure in µM, leaving out any unit text.

(Q) # query: Kd of entry Nc1nc2c(ncn2[C@@H]2O[C@H](COP(=O)(O)O)[C@@H](O)[C@H]2O)c(=O)[nH]1
(A) 25

* * *

Molecular target: Bacillus subtilis glutamine PRPP amidotransferase, wild type (Bacillus subtilis)
Construct: Enzymes of the B. subtilis class are synthesized with an NH2 terminal propeptide; made in house; host or cells: E. coli strain TX158 (purF), plasmid pGZ1
Assay: Inhibition of enzyme activity (glutamate formation) by nucleotides, wild type
Assay type: biochemical
Settings: I0.5, no fixed nucleotide; 2.5 mM PRPP, pH 8.0, 37° C.
measured property: IC50 (mM)
Just the number please, in mM, no unit attached.

(Q) Quick check: IC50 of Nc1ncnc2c1ncn2[C@@H]1O[C@H](COP(=O)(O)OP(=O)(O)O)[C@@H](O)[C@H]1O ?
(A) 4.7

* * *

Target: Bacillus subtilis glutamine PRPP amidotransferase variant K305Q (Bacillus subtilis, UniProt P00497, K316Q)
Construct: Enzymes of the B. subtilis class are synthesized with an NH2 terminal propeptide; made in house; host or cells: E. coli strain TX158 (purF), plasmid pBsF/K305Q
Assay: Inhibition of enzyme activity (glutamate formation) by nucleotides, mutant K305Q
Assay type: biochemical
Details: I0.5, fixed GMP 0.50 mM
measured property: IC50 (mM)
Numbers only; they are read as mM.

(Q) Given the molecule Nc1ncnc2c1ncn2[C@@H]1O[C@H](COP(=O)(O)OP(=O)(O)O)[C@@H](O)[C@H]1O [ADP] , what is its reported IC50?
(A) 12

* * *

Molecular target: Bacillus subtilis glutamine PRPP amidotransferase, wild type (Bacillus subtilis, UniProt P00497)
Construct: Enzymes of the B. subtilis class are synthesized with an NH2 terminal propeptide; made in house; host or cells: E. coli strain TX158 (purF), plasmid pGZ1
Assay: Inhibition of enzyme activity (glutamate formation) by nucleotides, wild type
Format: biochemical
Settings: fixed GMP 0.50 mM; read-out: I0.5
measured property: IC50 (µM)
Give a bare numeral; the unit µM is implied.

(Q) Look up IC50: Nc1ncnc2c1ncn2[C@@H]1O[C@H](COP(=O)(O)OP(=O)(O)O)[C@@H](O)[C@H]1O [ADP]
(A) 160

* * *

Target: Bacillus subtilis glutamine PRPP amidotransferase, wild type (Bacillus subtilis)
Construct: Enzymes of the B. subtilis class are synthesized with an NH2 terminal propeptide; made in house; host or cells: E. coli strain TX158 (purF), plasmid pGZ1
Assay: Inhibition of enzyme activity (glutamate formation) by nucleotides, wild type
Type: biochemical
Conditions: I0.5, fixed GMP 0.25 mM
measured property: IC50 (µM)
Give the quantity in µM, number only.

(Q) Please give the measured IC50 for this compound: Nc1ncnc2c1ncn2[C@@H]1O[C@H](COP(=O)(O)OP(=O)(O)O)[C@@H](O)[C@H]1O [ADP]
(A) 240

* * *

Measured pIC50, listed per entry.
Target: Bacillus subtilis glutamine PRPP amidotransferase, wild type (Bacillus subtilis)
Construct: Enzymes of the B. subtilis class are synthesized with an NH2 terminal propeptide; made in house; host or cells: E. coli strain TX158 (purF), plasmid pGZ1
Assay: Inhibition of enzyme activity (glutamate formation) by nucleotides, wild type
Type: biochemical
Details: fixed GMP 1.0 mM; read-out: I0.5
In textbook form, pIC50 equals minus log to base ten of the concentration in mol/L.

Nc1ncnc2c1ncn2[C@@H]1O[C@H](COP(=O)(O)O)[C@@H](O)[C@H]1O [AMP] : 3.03

Now turn to the next compound.
(Q) Give the measured pIC50 of Nc1ncnc2c1ncn2[C@@H]1O[C@H](COP(=O)(O)OP(=O)(O)O)[C@@H](O)[C@H]1O [ADP] .
(A) 4.10

* * *

Biological target: Bacillus subtilis glutamine PRPP amidotransferase variant K305Q (Bacillus subtilis, UniProt P00497, K316Q)
Construct: Enzymes of the B. subtilis class are synthesized with an NH2 terminal propeptide; made in house; host or cells: E. coli strain TX158 (purF), plasmid pBsF/K305Q
Assay: Inhibition of enzyme activity (glutamate formation) by nucleotides, mutant K305Q
Format: biochemical
Conditions: I0.5, fixed GMP 5.0 mM
measured property: pIC50
The read-out pIC50 is expressed as -log10 of concentration in moles per litre.

(Q) Please report the recorded pIC50 for Nc1ncnc2c1ncn2[C@@H]1O[C@H](COP(=O)(O)OP(=O)(O)O)[C@@H](O)[C@H]1O .
(A) 3.49

* * *

Biological target: Bacillus subtilis glutamine PRPP amidotransferase variant S347A (Bacillus subtilis, UniProt P00497, S358A)
Construct: Enzymes of the B. subtilis class are synthesized with an NH2 terminal propeptide; made in house; host or cells: E. coli strain TX158 (purF), plasmid pBsF/S347A
Test: biochemical
Format: biochemical
Details: I0.5, fixed GMP 1.4 mM (footnote c)
Recorded pIC50 values for a group of molecules are listed next.
API: returns pIC50 as number; meaning -log10 of concentration in mol/L.

Nc1ncnc2c1ncn2[C@@H]1O[C@H](COP(=O)(O)O)[C@@H](O)[C@H]1O : 2.74

Please find the next molecule below.
(Q) # get_value(readout='pIC50', item= Nc1ncnc2c1ncn2[C@@H]1O[C@H](COP(=O)(O)OP(=O)(O)O)[C@@H](O)[C@H]1O )
(A) 3.66

* * *

Target: Bacillus subtilis glutamine PRPP amidotransferase variant R307Q (Bacillus subtilis, UniProt P00497, R318Q)
Construct: Enzymes of the B. subtilis class are synthesized with an NH2 terminal propeptide; made in house; host or cells: E. coli strain TX158 (purF), plasmid pBsF/R307Q
Assay: Inhibition of enzyme activity (glutamate formation) by nucleotides, mutant R307Q
Format: biochemical
Settings: I0.5, fixed ADP 0.5 mM
measured property: pIC50
Would you please state pIC50, meaning minus log10 of the concentration in mol/L, as a bare number?

(Q) Bench note: what pIC50 did Nc1nc2c(ncn2[C@@H]2O[C@H](COP(=O)(O)O)[C@@H](O)[C@H]2O)c(=O)[nH]1 show?
(A) 2.48

* * *

Target: Bacillus subtilis glutamine PRPP amidotransferase variant R307Q (Bacillus subtilis, UniProt P00497, R318Q)
Construct: Enzymes of the B. subtilis class are synthesized with an NH2 terminal propeptide; made in house; host or cells: E. coli strain TX158 (purF), plasmid pBsF/R307Q
Test: Inhibition of enzyme activity (glutamate formation) by nucleotides, mutant R307Q
Type: biochemical
Conditions: I0.5, no fixed nucleotide; 2.5 mM PRPP, pH 8.0, 37° C.
measured property: pIC50
// scale note: pIC50 = -log10(conc_M); give the bare number

Reference set (2 entries):
Nc1ncnc2c1ncn2[C@@H]1O[C@H](COP(=O)(O)OP(=O)(O)O)[C@@H](O)[C@H]1O : 1.55
Nc1nc2c(ncn2[C@@H]2O[C@H](COP(=O)(O)O)[C@@H](O)[C@H]2O)c(=O)[nH]1 : 1.30

As a next step, examine the compound that follows.
(Q) Form field: reported pIC50 of Nc1ncnc2c1ncn2[C@@H]1O[C@H](COP(=O)(O)O)[C@@H](O)[C@H]1O
(A) 2.59
